// reported MIC per item
- Test system: Streptococcus pyogenes
- assay-protocol: Antimicrobial activity against Streptococcus pyogenes 3 expressing mefA after 20 hrs by agar dilution method
- Assay type: functional

Here CCOC(=O)[C@H]1[C@H](C)O[C@@H](O[C@H]2[C@H](N(C)C)[C@@H](O)[C@H](O[C@H]3[C@@H](CC=O)C[C@@H](C)[C@@H](O)CN(C)CCC(C/C=C/c4ccnc5ccccc45)NC(=O)C[C@@H](OC(=O)CC)[C@@H]3OC)O[C@@H]2C)C[C@@]1(C)O (stereo in doubt) was tested on Streptococcus pyogenes, and its MIC came to 2 µg/mL

Recorded MIC for CCOC(=O)[C@H]1[C@H](C)O[C@@H](O[C@H]2[C@H](N(C)C)[C@@H](O)[C@H](O[C@H]3[C@@H](CC=O)C[C@@H](C)[C@@H](O)CN(C)CC(/C=C/Cc4cnc5ccccc5c4)CCOC(=O)C[C@@H](OC(=O)CC)[C@@H]3OC)O[C@@H]2C)C[C@@]1(C)O (stereo in doubt; form 2) on Streptococcus pyogenes was 0.5 µg/mL

CCOC(=O)[C@H]1[C@H](C)O[C@@H](O[C@H]2[C@H](N(C)C)[C@@H](O)[C@H](O[C@H]3[C@@H](CC=O)C[C@@H](C)[C@@H](O)CN(C)CCC(CCCc4ccnc5ccccc45)NC(=O)C[C@@H](OC(=O)CC)[C@@H]3OC)O[C@@H]2C)C[C@@]1(C)O (stereo in doubt; form 2) tested on Streptococcus pyogenes gave MIC: 2 µg/mL

// returns MIC for CCOC(=O)[C@H]1[C@H](C)O[C@@H](O[C@H]2[C@H](N(C)C)[C@@H](O)[C@H](O[C@H]3[C@@H](CC=O)C[C@@H](C)[C@@H](O)CN(C)CCC(C/C=C/c4cnc5ccccc5c4)NC(=O)C[C@@H](OC(=O)CC)[C@@H]3OC)O[C@@H]2C)C[C@@]1(C)O (stereo in doubt; form 1) with Streptococcus pyogenes; value = 1 µg/mL

So the reported MIC for CCOC(=O)[C@H]1[C@H](C)O[C@@H](O[C@H]2[C@H](N(C)C)[C@@H](O)[C@H](O[C@H]3[C@@H](CC=O)C[C@@H](C)[C@@H](O)CN(C)CCC(CCCc4cnc5ccccc5c4)NC(=O)C[C@@H](OC(=O)CC)[C@@H]3OC)O[C@@H]2C)C[C@@]1(C)O (stereo in doubt) , on Streptococcus pyogenes, turned out to be 1 µg/mL

Field MIC (system: Streptococcus pyogenes) for entry CCOC(=O)[C@H]1[C@H](C)O[C@@H](O[C@H]2[C@H](N(C)C)[C@@H](O)[C@H](O[C@H]3[C@@H](CC=O)C[C@@H](C)[C@@H](O)CN(C)CC(/C=C\Cc4ccnc5ccccc45)CCOC(=O)C[C@@H](OC(=O)CC)[C@@H]3OC)O[C@@H]2C)C[C@@]1(C)O (stereo in doubt; form 1) = 0.5 µg/mL
